# assay-procedure: Oral bioavailability in Beagle dog plasma at […] measured 24 hrs post dose by LC/MS/MS analysis
# Format: ADME, organism-based, Canis lupus familiaris

[
  {
    "entry-smiles": "C[C@H](NC(=O)c1c(N)nn2cccnc12)c1cc2cccc(C#Cc3cnn(C)c3)c2c(=O)n1-c1ccccc1",
    "bioavailability at 24 h / %": 65
  }
]

* * *

# assay-procedure: Half life in Sprague-Dawley rat plasma at 1 mg/kg, iv by LC/MS/MS analysis
# Assay type: ADME, organism-based

[
  {
    "entry-smiles": "C[C@H](NC(=O)c1c(N)nn2cccnc12)c1cc2cccc(C#Cc3cnn(C)c3)c2c(=O)n1-c1ccccc1",
    "half-life, min": 264
  }
]

* * *

# assay-procedure: Half life in cynomolgus monkey plasma at 0.5 mg/kg, iv by LC/MS/MS analysis
# Assay type: ADME, organism-based, Macaca fascicularis
result-type: half-life (h)

[
  {
    "entry-smiles": "C[C@H](NC(=O)c1c(N)nn2cccnc12)c1cc2cccc(C#Cc3cnn(C)c3)c2c(=O)n1-c1ccccc1",
    "numeric-value": 4.3
  }
]

* * *

# assay-procedure: Volume of distribution at steady state in Beagle dog plasma at 0.5 mg/kg, iv measured 24 hrs post dose by LC/MS/MS analysis
# Type: ADME, organism-based, Canis lupus familiaris
# experimental-conditions: read-out: Vdss

[
  {
    "compound": "C[C@H](NC(=O)c1c(N)nn2cccnc12)c1cc2cccc(C#Cc3cnn(C)c3)c2c(=O)n1-c1ccccc1 [EGANELISIB]",
    "Vd (L/kg)": 1.3
  }
]

* * *

# assay-procedure: Half life in mouse hepatocytes at 1 uM by LC/MS analysis
# Format: ADME, cell-based, Hepatocyte
Below, each entry is listed with its recorded half-life at 1 µM.

[
  {
    "entry-smiles": "C[C@H](NC(=O)c1c(N)nn2cccnc12)c1cc2cccc(C#Cc3ccn(C)n3)c2c(=O)n1-c1ccccc1",
    "readout-qualifier": "=",
    "half-life at 1 µM, h": 4.18
  },
  {
    "entry-smiles": "C[C@H](NC(=O)c1c(N)nn2cccnc12)c1cc2cccc(C#Cc3cnn(C)c3)c2c(=O)n1-c1ccccc1",
    "readout-qualifier": ">",
    "half-life at 1 µM, h": 6
  },
  {
    "entry-smiles": "C[C@H](NC(=O)c1c(N)nn2cccnc12)c1cc2cccc(C#Cc3ccncc3)c2c(=O)n1-c1ccccc1",
    "readout-qualifier": "=",
    "half-life at 1 µM, h": 0.85
  },
  {
    "entry-smiles": "C[C@H](NC(=O)c1c(N)nn2cccnc12)c1cc2cccc(C#Cc3cscn3)c2c(=O)n1-c1ccccc1",
    "readout-qualifier": "=",
    "half-life at 1 µM, h": 4.5
  },
  {
    "entry-smiles": "C[C@H](NC(=O)c1c(N)nn2cccnc12)c1cc2cccc(C#Cc3ccccn3)c2c(=O)n1-c1ccccc1",
    "readout-qualifier": "=",
    "half-life at 1 µM, h": 1.2
  },
  {
    "entry-smiles": "C[C@H](NC(=O)c1c(N)nn2cccnc12)c1cc2cccc(C#Cc3cncs3)c2c(=O)n1-c1ccccc1",
    "readout-qualifier": "=",
    "half-life at 1 µM, h": 0.717
  },
  {
    "entry-smiles": "C[C@H](NC(=O)c1c(N)nn2cccnc12)c1cc2cccc(C#Cc3cccnc3)c2c(=O)n1-c1ccccc1",
    "readout-qualifier": "=",
    "half-life at 1 µM, h": 1.7
  },
  {
    "entry-smiles": "C[C@H](NC(=O)c1c(N)nn2cccnc12)c1cc2cccc(C#Cc3nccs3)c2c(=O)n1-c1ccccc1",
    "readout-qualifier": "=",
    "half-life at 1 µM, h": 0.45
  }
]

* * *

# assay-procedure: Half life in CD-1 mouse plasma at 1 mg/kg, iv by LC/MS/MS analysis
# Assay type: ADME, organism-based

[
  {
    "entry-smiles": "C[C@H](NC(=O)c1c(N)nn2cccnc12)c1cc2cccc(C#Cc3cnn(C)c3)c2c(=O)n1-c1ccccc1",
    "half-life, h": 3.2
  }
]

* * *

# assay-procedure: Volume of distribution at steady state in cynomolgus monkey plasma at 0.5 mg/kg, iv measured 24 hrs post dose by LC/MS/MS analysis
# Assay type: ADME, organism-based, Macaca fascicularis
# experimental-conditions: read-out: Vdss

[
  {
    "entry-smiles": "C[C@H](NC(=O)c1c(N)nn2cccnc12)c1cc2cccc(C#Cc3cnn(C)c3)c2c(=O)n1-c1ccccc1",
    "units-label": "L/kg",
    "Vd": 1.3
  }
]

* * *

# assay-procedure: Fraction unbound in rat plasma at 1 uM after 5 hrs by rapid equilibrium dialysis based LC-MS/MS analysis
# Assay type: ADME, cell-free

[
  {
    "entry-smiles": "C[C@H](NC(=O)c1c(N)nn2cccnc12)c1cc2cccc(C#Cc3cnn(C)c3)c2c(=O)n1-c1ccccc1",
    "fraction unbound at 5 h, 1 µM": 0.028
  }
]

* * *

# assay-procedure: Clearance in cynomolgus monkey plasma at 0.5 mg/kg, iv measured 24 hrs post dose by LC/MS/MS analysis
# Type: ADME, organism-based, Macaca fascicularis
result-type: clearance (mL/min/kg)

[
  {
    "entry-smiles": "C[C@H](NC(=O)c1c(N)nn2cccnc12)c1cc2cccc(C#Cc3cnn(C)c3)c2c(=O)n1-c1ccccc1",
    "numeric-value": 4.3
  }
]

* * *

# system-tested: Cytochrome P450 2C19 (Homo sapiens)
# Sequence (P33261 whole entry): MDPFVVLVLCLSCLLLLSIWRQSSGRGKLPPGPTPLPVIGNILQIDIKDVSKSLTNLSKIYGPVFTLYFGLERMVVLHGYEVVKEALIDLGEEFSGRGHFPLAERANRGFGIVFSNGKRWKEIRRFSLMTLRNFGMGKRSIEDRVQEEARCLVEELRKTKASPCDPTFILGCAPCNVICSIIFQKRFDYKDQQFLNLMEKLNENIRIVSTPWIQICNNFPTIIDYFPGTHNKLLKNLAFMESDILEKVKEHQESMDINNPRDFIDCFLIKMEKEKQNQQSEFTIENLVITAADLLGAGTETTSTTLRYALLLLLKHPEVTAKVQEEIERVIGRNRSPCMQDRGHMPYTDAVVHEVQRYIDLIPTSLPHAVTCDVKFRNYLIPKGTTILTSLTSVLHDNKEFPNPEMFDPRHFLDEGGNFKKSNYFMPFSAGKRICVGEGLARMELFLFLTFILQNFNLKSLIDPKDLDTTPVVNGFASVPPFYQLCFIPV
# assay-procedure: Inhibition of CYP2C19 in human liver microsomes after 5 mins in presence of NADPH by LC-MS/MS analysis
# Format: ADME
pIC50: −log10 of the molar value.

[
  {
    "molecule": "C[C@H](NC(=O)c1c(N)nn2cccnc12)c1cc2cccc(C#Cc3cnn(C)c3)c2c(=O)n1-c1ccccc1 [EGANELISIB]",
    "system-tested": "Cytochrome P450 2C19 (Homo sapiens)",
    "pIC50": "< 4.70"
  }
]

* * *

# assay-procedure: Half life in human hepatocytes at 1 uM by LC/MS analysis
# Type: ADME, cell-based, Hepatocyte

[
  {
    "entry-smiles": "C[C@H](NC(=O)c1c(N)nn2cccnc12)c1cc2cccc(C#Cc3cnn(C)c3)c2c(=O)n1-c1ccccc1",
    "half-life at 1 µM": "> 6 h"
  }
]

* * *

# assay-procedure: AUC (0 to infinity) in Sprague-Dawley rat plasma at 5 mg/kg administered via oral gavage measured 24 hrs post dose by LC/MS/MS analysis
# Format: ADME, organism-based
# Parameters: dose 5 mg/kg, time infinity, route oral

[
  {
    "compound": "C[C@H](NC(=O)c1c(N)nn2cccnc12)c1cc2cccc(C#Cc3cnn(C)c3)c2c(=O)n1-c1ccccc1 [EGANELISIB]",
    "AUC(0-inf) [ng·h/mL]": 8050
  }
]

* * *

# assay-procedure: Cmax in Sprague-Dawley rat plasma at 5 mg/kg administered via oral gavage measured 24 hrs post dose by LC/MS/MS analysis
# Type: ADME, organism-based
# Parameters: dose 5 mg/kg, route oral
result-type: Cmax (nM)

[
  {
    "entry-smiles": "C[C@H](NC(=O)c1c(N)nn2cccnc12)c1cc2cccc(C#Cc3cnn(C)c3)c2c(=O)n1-c1ccccc1",
    "numeric-value": 2000
  }
]

* * *

# assay-procedure: Oral bioavailability in Sprague-Dawley rat plasma at 5 mg/kg measured 24 hrs post dose by LC/MS/MS analysis
# Type: ADME, organism-based

[
  {
    "compound": "C[C@H](NC(=O)c1c(N)nn2cccnc12)c1cc2cccc(C#Cc3cnn(C)c3)c2c(=O)n1-c1ccccc1 [EGANELISIB]",
    "bioavailability [%]": 57
  }
]

* * *

# system-tested: PI3-kinase p110-delta/p85-alpha (Homo sapiens, UniProt O00329)
# Sequence (P27986 whole entry): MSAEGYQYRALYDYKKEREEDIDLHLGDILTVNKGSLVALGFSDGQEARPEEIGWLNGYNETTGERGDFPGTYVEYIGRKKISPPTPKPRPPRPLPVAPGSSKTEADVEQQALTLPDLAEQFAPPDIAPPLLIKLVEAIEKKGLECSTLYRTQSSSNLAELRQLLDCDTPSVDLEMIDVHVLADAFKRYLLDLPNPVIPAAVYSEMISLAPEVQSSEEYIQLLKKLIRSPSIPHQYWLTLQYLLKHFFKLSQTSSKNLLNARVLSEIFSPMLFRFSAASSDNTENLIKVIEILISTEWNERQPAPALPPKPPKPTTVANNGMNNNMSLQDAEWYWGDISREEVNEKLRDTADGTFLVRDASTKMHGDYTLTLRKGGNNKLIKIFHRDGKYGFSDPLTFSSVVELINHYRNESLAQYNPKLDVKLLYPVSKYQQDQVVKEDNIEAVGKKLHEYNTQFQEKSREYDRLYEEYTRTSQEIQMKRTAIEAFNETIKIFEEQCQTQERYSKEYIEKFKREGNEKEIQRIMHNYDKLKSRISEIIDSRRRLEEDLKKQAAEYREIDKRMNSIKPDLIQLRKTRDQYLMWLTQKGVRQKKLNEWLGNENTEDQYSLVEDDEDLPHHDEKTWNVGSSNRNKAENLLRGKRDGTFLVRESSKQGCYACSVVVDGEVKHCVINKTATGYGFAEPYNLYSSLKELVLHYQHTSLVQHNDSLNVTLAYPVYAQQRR
# Sequence (O00329 whole entry): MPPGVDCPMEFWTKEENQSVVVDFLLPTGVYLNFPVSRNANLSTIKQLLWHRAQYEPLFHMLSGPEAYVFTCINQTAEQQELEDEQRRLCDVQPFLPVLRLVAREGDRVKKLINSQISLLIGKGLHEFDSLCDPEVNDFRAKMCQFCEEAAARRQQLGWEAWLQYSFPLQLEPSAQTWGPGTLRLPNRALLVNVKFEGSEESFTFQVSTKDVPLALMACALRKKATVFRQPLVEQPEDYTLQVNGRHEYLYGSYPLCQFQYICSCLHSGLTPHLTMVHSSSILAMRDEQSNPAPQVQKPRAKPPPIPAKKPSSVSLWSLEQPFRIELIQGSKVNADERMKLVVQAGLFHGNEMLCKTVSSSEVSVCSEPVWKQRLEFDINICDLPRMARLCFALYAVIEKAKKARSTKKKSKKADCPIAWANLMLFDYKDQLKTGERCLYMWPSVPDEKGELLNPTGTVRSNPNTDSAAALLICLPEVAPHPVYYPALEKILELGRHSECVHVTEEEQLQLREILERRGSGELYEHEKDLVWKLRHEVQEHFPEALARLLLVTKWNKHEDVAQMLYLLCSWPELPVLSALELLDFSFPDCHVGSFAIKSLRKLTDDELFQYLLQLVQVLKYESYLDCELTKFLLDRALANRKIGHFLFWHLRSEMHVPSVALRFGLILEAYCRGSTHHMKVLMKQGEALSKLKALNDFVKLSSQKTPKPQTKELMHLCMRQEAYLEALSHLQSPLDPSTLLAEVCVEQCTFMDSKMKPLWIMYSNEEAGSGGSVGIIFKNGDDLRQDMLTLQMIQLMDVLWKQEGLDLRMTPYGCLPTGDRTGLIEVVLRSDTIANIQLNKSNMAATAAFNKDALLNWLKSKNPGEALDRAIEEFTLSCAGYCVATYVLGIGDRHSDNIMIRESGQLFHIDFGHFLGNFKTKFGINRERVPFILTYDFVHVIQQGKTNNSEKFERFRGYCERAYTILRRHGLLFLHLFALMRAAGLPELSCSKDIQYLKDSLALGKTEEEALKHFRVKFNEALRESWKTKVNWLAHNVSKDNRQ
# assay-procedure: Inhibition of human recombinant full length N-terminal GST-tagged PI3K p110delta/p85alpha coexpressed in baculovirus infected Sf9 insect cells using diC8PIP2 as substrate incubated for 15 mins followed by substrate addition measured after 2 hr by ADP-Glo luminescence assay
Here the recorded log10 of IC50 is given for each entry.
result-type: log10 of IC50 (log10 of the value in nM)

[
  {
    "entry-smiles": "C[C@H](NC(=O)c1c(N)nn2cccnc12)c1cc2cccc(F)c2c(=O)n1-c1ccccc1",
    "numeric-value": 2.72
  },
  {
    "entry-smiles": "CC[C@H](NC(=O)c1c(N)nn2cccnc12)c1cc2cccc(Cl)c2c(=O)n1-c1ccccc1",
    "numeric-value": 2.78
  },
  {
    "entry-smiles": "C[C@H](NC(=O)c1c(N)nn2cccnc12)c1cc2cccc(Cl)c2c(=O)n1-c1ccccc1",
    "numeric-value": 2.60
  },
  {
    "entry-smiles": "C[C@H](NC(=O)c1c(N)nn2cccnc12)c1cc2cccc(C#Cc3cscn3)c2c(=O)n1-c1ccccc1",
    "numeric-value": 3.68
  },
  {
    "entry-smiles": "C[C@H](NC(=O)c1cnn2cccnc12)c1cc2cccc(Cl)c2c(=O)n1-c1ccccc1",
    "numeric-value": 2.90
  },
  {
    "entry-smiles": "C[C@H](NC(=O)c1c(N)nn2cccnc12)c1cc2cccc(C#N)c2c(=O)n1-c1ccccc1",
    "numeric-value": 3.49
  },
  {
    "entry-smiles": "Cc1cccc2cc([C@H](C)NC(=O)c3c(N)nn4cccnc34)n(-c3ccccc3)c(=O)c12",
    "numeric-value": 3.41
  },
  {
    "entry-smiles": "C[C@H](NC(=O)c1c(N)nn2ccccc12)c1cc2cccc(Cl)c2c(=O)n1-c1ccccc1",
    "numeric-value": 3.41
  },
  {
    "entry-smiles": "C[C@H](NC(=O)c1cncc2cccnc12)c1cc2cccc(Cl)c2c(=O)n1-c1ccccc1",
    "numeric-value": 2.95
  },
  {
    "entry-smiles": "C[C@H](NC(=O)c1c(N)nn2cccnc12)c1cc2cccc(C#Cc3ccccc3)c2c(=O)n1-c1ccccc1",
    "numeric-value": 2.15
  },
  {
    "entry-smiles": "C#Cc1cccc2cc([C@H](C)NC(=O)c3c(N)nn4cccnc34)n(-c3ccccc3)c(=O)c12",
    "numeric-value": 2.85
  },
  {
    "entry-smiles": "C[C@H](NC(=O)c1c(N)ncc2cccnc12)c1cc2cccc(Cl)c2c(=O)n1-c1ccccc1",
    "numeric-value": 2.51
  }
]
